Assayed target: von Willebrand factor (VWF) (Homo sapiens, UniProt P04275 P04275:764-2813)
Test description: filter; Bmax 84%; 2 mM CaCl2, 37 C
Reported conditions: tags: factor VIII free human purified VWF, Haematologic Technologies Inc; label: 5'-32P
Observed property: pKd
Answers are plain numbers, as −log10 of the molar value.

// query pKd value for entry ACGAACUGCCCUCGUAUUAUUUCGACGCACAGACGU (ssRNA, 2'-F C2,U7,C9,C10,C11,U12,C26,C28,C34,U36; ribo A1,G3,G8,A25,G27,A29,G35; rest 2'-OMe; 3' idT) [T89 vrt1]
8.92
